Tested on: Candida albicans (22972)
measurement-notes: MIC, broth microdilution, Candida albicans (22972)
Format: cell-based
settings: pH 3, Mueller Hinton Broth, 18 to 24 hours, read-out: MIC
readout-type: MIC (mg/mL)
# unit: mg/mL | format: bare number

Enquiry: Query (compound): CC(C)CCOP(=O)(O)OC[C@H]1O[C@@H](n2ccc(N)nc2=O)C[C@@H]1O [LAI-004] ; field requested: MIC
Return: 50

Enquiry: Query (compound): CCCCOP(=O)(O)OC[C@H]1O[C@@H](n2ccc(N(C)C)nc2=O)C[C@@H]1O [LAI-008] ; field requested: MIC
Return: 50

====

System: E. cloacae ATCC BAA-2468
measurement-notes: MIC, broth microdilution, E. cloacae ATCC BAA-2468
Assay type: cell-based
Set-up: unit not given beside the values
settings: E. cloacae ATCC BAA-2468, Gram −ve; pH 3; 18 to 24 hours
With a cut-off of 2, any MIC strictly below it is called 1; any MIC meeting it or above is called 0.

Enquiry: Consider the molecule CCCCOP(=O)(O)OC[C@@H]1CC[C@H](n2ccc(N)nc2=O)O1 . Is its MIC strictly less than 2?
Return: 0

Enquiry: Consider the molecule CCCCOP(=O)(O)OC[C@H]1O[C@@H](n2ccc(N(C)C)nc2=O)C[C@@H]1O . Is its MIC strictly less than 2?
Return: 0

Enquiry: Consider the molecule CCCCOP(=O)(O)OC[C@H]1O[C@@H](n2ccc(N(C)C)nc2=O)[C@H](OC)[C@@H]1O . Is its MIC strictly less than 2?
Return: 1

Enquiry: Consider the molecule CCCCOP(=O)(O)OC[C@H]1O[C@@H](n2ccc(N)nc2=O)C(F)(F)[C@@H]1O . Is its MIC strictly less than 2?
Return: 1

# evaluate next
Enquiry: Consider the molecule CCCCOP(=O)(O)OC[C@H]1O[C@@H](n2ccc(N(C)C)nc2=O)C(F)(F)[C@@H]1O . Is its MIC strictly less than 2?
Return: 1

====

Tested on: S. pyogenes ATCC-49399
measurement-notes: MIC, broth microdilution, S. pyogenes ATCC-49399
Type: cell-based
Parameters: unit not given beside the values
settings: S. pyogenes ATCC-49399, Gram +ve; pH 3; 18 to 24 hours
readout-type: MIC
// keep it numeric: no unit symbol after the value

Enquiry: Query (compound): CCCCOP(=O)(O)OC[C@H]1O[C@@H](n2ccc(N(C)C)nc2=O)C(F)(F)[C@@H]1O ; field requested: MIC
Return: 1.56

Enquiry: Query (compound): CCCCOP(=O)(O)OC[C@@H]1CC[C@H](n2ccc(N)nc2=O)O1 ; field requested: MIC
Return: 3.13

Enquiry: Query (compound): CCCCOP(=O)(O)OC[C@H]1O[C@@H](n2ccc(N(C)C)nc2=O)C[C@@H]1O ; field requested: MIC
Return: 3.12

Enquiry: Query (compound): CCCCOP(=O)(O)OC[C@H]1O[C@@H](n2ccc(N)nc2=O)C(F)(F)[C@@H]1O ; field requested: MIC
Return: 0.39

Continue with the next compound.
Enquiry: Query (compound): CCCCOP(=O)(O)OC[C@H]1O[C@@H](n2ccc(N(C)C)nc2=O)[C@H](OC)[C@@H]1O ; field requested: MIC
Return: 0.78

====

Tested on: E. coli ATCC-25922
measurement-notes: MIC, broth microdilution, E. coli ATCC-25922
Format: cell-based
Set-up: unit not given beside the values
settings: E. coli ATCC-25922, Gram −ve; pH 3; 18 to 24 hours
readout-type: MIC

// solved cases for MIC follow
Enquiry: Query (molecule): CCCCOP(=O)(O)OC[C@H]1O[C@@H](n2ccc(N(C)C)nc2=O)C[C@@H]1O ; field requested: MIC
Return: 6.25

Enquiry: Query (molecule): CCCCOP(=O)(O)OC[C@@H]1CC[C@H](n2ccc(N)nc2=O)O1 ; field requested: MIC
Return: 6.25

Enquiry: Query (molecule): CCCCOP(=O)(O)OC[C@H]1O[C@@H](n2ccc(N(C)C)nc2=O)[C@H](OC)[C@@H]1O ; field requested: MIC
Return: 0.78

Enquiry: Query (molecule): CCCCOP(=O)(O)OC[C@H]1O[C@@H](n2ccc(N(C)C)nc2=O)C(F)(F)[C@@H]1O ; field requested: MIC
Return: 0.78

Continue with the next molecule.
Enquiry: Query (molecule): CCCCOP(=O)(O)OC[C@H]1O[C@@H](n2ccc(N)nc2=O)C(F)(F)[C@@H]1O ; field requested: MIC
Return: 0.39
